# key: entry, value: pIC50
- SYSTEM NAME: NaV1.8 (Homo sapiens)
- Sequence (Q9Y5Y9 whole entry): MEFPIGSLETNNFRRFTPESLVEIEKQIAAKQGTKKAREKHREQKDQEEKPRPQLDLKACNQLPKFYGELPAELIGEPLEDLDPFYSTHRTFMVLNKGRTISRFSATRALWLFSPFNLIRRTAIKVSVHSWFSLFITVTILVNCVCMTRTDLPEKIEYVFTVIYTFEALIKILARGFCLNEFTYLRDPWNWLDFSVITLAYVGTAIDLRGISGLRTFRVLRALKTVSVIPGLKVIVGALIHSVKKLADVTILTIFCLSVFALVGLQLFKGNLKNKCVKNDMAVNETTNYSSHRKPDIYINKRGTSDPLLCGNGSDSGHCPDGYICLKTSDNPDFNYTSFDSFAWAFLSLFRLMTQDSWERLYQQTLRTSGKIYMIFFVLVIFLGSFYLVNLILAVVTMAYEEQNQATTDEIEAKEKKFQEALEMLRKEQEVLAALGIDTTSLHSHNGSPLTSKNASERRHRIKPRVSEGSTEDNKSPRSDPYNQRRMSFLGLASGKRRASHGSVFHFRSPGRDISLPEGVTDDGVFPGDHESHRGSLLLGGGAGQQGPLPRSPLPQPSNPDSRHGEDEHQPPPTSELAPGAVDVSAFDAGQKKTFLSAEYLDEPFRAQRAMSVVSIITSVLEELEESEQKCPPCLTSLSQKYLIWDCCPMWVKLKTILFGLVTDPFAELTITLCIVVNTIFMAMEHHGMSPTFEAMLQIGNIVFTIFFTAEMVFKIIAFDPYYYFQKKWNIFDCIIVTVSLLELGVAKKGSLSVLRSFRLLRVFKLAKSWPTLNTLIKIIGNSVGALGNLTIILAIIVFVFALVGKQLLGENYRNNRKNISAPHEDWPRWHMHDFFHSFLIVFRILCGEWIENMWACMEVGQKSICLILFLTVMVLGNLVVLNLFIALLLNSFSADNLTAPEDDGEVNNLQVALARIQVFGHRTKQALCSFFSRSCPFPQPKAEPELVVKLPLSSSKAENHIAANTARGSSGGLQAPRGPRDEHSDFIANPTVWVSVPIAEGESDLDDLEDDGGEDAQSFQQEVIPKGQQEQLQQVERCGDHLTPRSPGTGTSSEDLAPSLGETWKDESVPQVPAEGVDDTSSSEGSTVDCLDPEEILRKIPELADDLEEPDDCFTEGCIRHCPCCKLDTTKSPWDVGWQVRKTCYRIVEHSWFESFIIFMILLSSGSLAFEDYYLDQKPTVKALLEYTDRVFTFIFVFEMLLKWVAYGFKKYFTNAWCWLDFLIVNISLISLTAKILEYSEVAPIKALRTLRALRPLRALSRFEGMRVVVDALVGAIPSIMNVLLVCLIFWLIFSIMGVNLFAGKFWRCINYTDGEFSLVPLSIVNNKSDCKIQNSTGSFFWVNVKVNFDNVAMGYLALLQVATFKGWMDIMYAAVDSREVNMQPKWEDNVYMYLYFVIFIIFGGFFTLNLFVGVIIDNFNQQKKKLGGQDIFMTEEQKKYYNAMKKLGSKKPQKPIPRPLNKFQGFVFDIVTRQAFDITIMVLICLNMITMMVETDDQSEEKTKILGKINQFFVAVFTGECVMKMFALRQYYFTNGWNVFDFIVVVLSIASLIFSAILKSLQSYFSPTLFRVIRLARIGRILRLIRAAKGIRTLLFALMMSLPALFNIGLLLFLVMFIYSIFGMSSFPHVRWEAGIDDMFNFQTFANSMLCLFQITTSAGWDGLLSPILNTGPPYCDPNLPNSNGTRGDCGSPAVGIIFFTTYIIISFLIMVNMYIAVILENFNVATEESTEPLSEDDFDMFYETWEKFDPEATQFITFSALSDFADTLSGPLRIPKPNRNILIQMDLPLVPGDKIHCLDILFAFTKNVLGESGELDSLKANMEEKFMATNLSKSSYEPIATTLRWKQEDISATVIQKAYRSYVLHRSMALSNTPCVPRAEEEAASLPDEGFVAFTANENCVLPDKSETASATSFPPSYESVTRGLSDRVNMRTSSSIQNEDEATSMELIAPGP
- PROCEDURE DETAILS: Optical membrane potential assay, NaV 1.8 inhibition
- Assay type: cell-based
- ASSAY CONDITIONS: activity against NaV 1.8 channel
pIC50: −log10 of the molar value.

Solved cases below.
COMPOUND	pIC50
CC(C)(C)c1ccc(C(=O)Nc2cccc(S(N)(=O)=O)c2)cn1	4.70 to 5.00
CC(C)(C)c1nc(C(=O)Nc2cccc(S(N)(=O)=O)c2)n(Cc2ccccc2)n1	4.70 to 5.00
Cc1oc(C(C)(C)C)cc1C(=O)Nc1cccc(S(N)(=O)=O)c1 [Compound 18]	> 5.70
CCN(CC)Cc1oc(-c2ccccc2)cc1C(=O)Nc1cccc(S(N)(=O)=O)c1	5.00 to 5.70

Now let's try a different one.
Ask: Looking for the measured pIC50 of Cc1oc(C(C)(C)C)c(CO)c1C(=O)Nc1cccc(S(N)(=O)=O)c1 , can you help?
Result: > 5.70

Reference source for all entries: patent US8519137B2
